molecular target: H1/Nca HA (biotinylated full length trimeric HA, A/New Caledonia/20/1999) (Influenza A virus); assay: AlphaLISA competition assay with HB80.4, H1/NCa HA; type: binding, influenza A virus H1N1 A/New Caledonia/20/1999; conditions: ALC_H1_NCa_HB80.4 calculated pIC50, AlphaLISA competition with HB80.4 on H1 NCa HA, 0.5 nM HA
Threshold check on IC50: strictly below 0.4 µM is Criterion met; on or above 0.4 µM is Criterion not met.

CSCC[C@H](NC(=O)CNC(=O)CNC(=O)[C@H](C)NC(=O)[C@@H](NC(=O)CNC(=O)[C@H](CC(C)C)NC(=O)[C@@H]1CCCN1C(=O)[C@H](CC(=O)O)NC(=O)[C@H](CCCNC(=N)N)NC(=O)[C@H](Cc1ccc(O)cc1)NC(=O)[C@H](CC(C)C)NC(=O)[C@H](CO)NC(=O)[C@@H](NC(=O)CCC(=O)O)C(C)C)C(C)C)C(=O)NCC(=O)N[C@H](C(=O)N[C@@H](Cc1ccc(O)cc1)C(N)=O)C(C)C Criterion not met
CSCC[C@@H]1NC(=O)CNC(=O)CNC(=O)[C@H](C)NC(=O)[C@H](C(C)C)NC(=O)CNC(=O)[C@H](CC(C)C)NC(=O)[C@@H]2CCCN2C(=O)[C@H](CC(=O)O)NC(=O)[C@H](CCC(=O)O)NC(=O)[C@H](Cc2ccc(O)cc2)NC(=O)[C@H](CC(C)C)NC(=O)[C@H](CO)NC(=O)[C@H](C(C)C)NC(=O)CNC(=O)[C@H]2CCCN2C(=O)[C@H](Cc2ccc(O)cc2)NC(=O)[C@H](C(C)C)NC(=O)CNC1=O Criterion met
CSCC[C@@H]1NC(=O)CNC(=O)CNC(=O)[C@H](C)NC(=O)[C@H](C(C)C)NC(=O)CNC(=O)[C@H](CC(C)C)NC(=O)[C@@H]2CCCN2C(=O)[C@H](CC(=O)O)NC(=O)[C@H](CCC(=O)O)NC(=O)[C@H](Cc2ccc(O)cc2)NC(=O)[C@H](CC(C)C)NC(=O)[C@@H]2CCCN2C(=O)[C@H]2CCCN2C(=O)CNC1=O Criterion met
CSCC[C@@H]1NC(=O)CNC(=O)CNC(=O)[C@H](C)NC(=O)[C@H](C(C)C)NC(=O)CNC(=O)[C@H](CC(C)C)NC(=O)[C@@H]2CCCN2C(=O)[C@H](CC(=O)O)NC(=O)[C@H](CCC(=O)O)NC(=O)[C@H](Cc2ccc(O)cc2)NC(=O)[C@H](CC(C)C)NC(=O)[C@@H](NC(=O)CCC(=O)O)CSSC[C@@H](C(N)=O)NC(=O)CNC1=O Criterion met
CSCC[C@H](NC(=O)CNC(=O)CNC(=O)[C@H](C)NC(=O)[C@@H](NC(=O)CNC(=O)[C@H](CC(C)C)NC(=O)[C@@H]1CCCN1C(=O)[C@H](CC(=O)O)NC(=O)[C@H](CCC(=O)O)NC(=O)[C@H](Cc1ccc(O)cc1)NC(=O)[C@H](CC(C)C)NC(=O)[C@H](CO)NC(=O)[C@@H](NC(=O)CCC(=O)O)C(C)C)C(C)C)C(=O)NCC(=O)N[C@H](C(=O)N[C@@H](Cc1ccc(O)cc1)C(N)=O)C(C)C Criterion not met

Moving on to the next molecule.
For this molecule, is IC50 lower than 0.4 µM? CSCC[C@@H]1NC(=O)CNC(=O)CNC(=O)[C@H](C)NC(=O)[C@H](C(C)C)NC(=O)CNC(=O)[C@H](CC(C)C)NC(=O)[C@@H]2CCCN2C(=O)[C@H](CC(=O)O)NC(=O)[C@H](CCCNC(=N)N)NC(=O)[C@H](Cc2ccc(O)cc2)NC(=O)[C@H](CC(C)C)NC(=O)[C@@H](NC(=O)CCC(=O)O)CSSC[C@@H](C(N)=O)NC(=O)CNC1=O
Criterion met
